- experimental_details: In vitro cytotoxicity assay (neutral red), SK-MEL
- Type: cell-based
- conditions_used: human, SK-MEL cells (malignant melanoma), 48 h incubation, read-out: Cytotoxic activity IC50, SK-MEL
quantity_name: IC50 at 48 h (nM)

>>> df
                                   compound  quantity_name  reported_result
0  COc1cccc2c1C(=O)c1c(O)c3c(c(O)c1C2=O)C[C@@](O)(C(=O)CO)C[C@@H]3O[C@H]1C[C@H](N)[C@H](O)[C@H](C)O1 [Doxorubicin]   IC50 at 48 h             1290

###

- experimental_details: In vitro cytotoxicity assay (neutral red), KB
- Format: cell-based
- conditions_used: human, KB cells (oral epidermal carcinoma), 48 h incubation, read-out: Cytotoxic activity IC50, KB
quantity_name: IC50 at 48 h (nM)

>>> print(df.to_string())
                                 cpd_smiles  quantity_name  reported_result
0  COc1cccc2c1C(=O)c1c(O)c3c(c(O)c1C2=O)C[C@@](O)(C(=O)CO)C[C@@H]3O[C@H]1C[C@H](N)[C@H](O)[C@H](C)O1   IC50 at 48 h             2120
